// self-cleavage lookup, one value per entry
B1: LINE1-full (parent)
chain: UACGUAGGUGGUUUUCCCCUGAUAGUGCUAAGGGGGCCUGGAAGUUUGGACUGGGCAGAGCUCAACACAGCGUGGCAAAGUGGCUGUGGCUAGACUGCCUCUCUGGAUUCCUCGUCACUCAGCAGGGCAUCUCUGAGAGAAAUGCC

Variants of: B1
Assay: self-cleavage, relative activity (ratio to wild type); higher = more cleavage; in vitro, sequencing; the parent is a self-cleaving ribozyme
// no unit string in output, number only

Take a look at these entries with their results.
change | self-cleavage
U104A U109C | 1.11
U1C A67C | 0.09
U15C A67G | 0.44

**Query** I'd like to know its self-cleavage. The variant in question is C37G A43G
**Result** 1.36

**Query** Another variant to check: G54A A141G
**Result** 0.8

**Query** Another variant to check: G55U A121G
**Result** 0.37

**Query** Another variant to check: U23G
**Result** 1.18

**Query** Another variant to check: A43U U104A
**Result** 0.98

**Query** Another variant to check: A59G U104G
**Result** 0.08

**Query** Another variant to check: U96G U132C
**Result** 0.16

**Query** Another variant to check: A79U A107G
**Result** 2.26

Cited source: the RNAGym collection of RNA variant scans (doi:10.7554/elife.90254)
